test: Oral toxicity studies in cynomolgus monkeys (N217019, G217013, G218027)
Assay type: in vivo, cynomolgus monkey (Macaca fascicularis)
particulars: cynomolgus monkey, in vivo; cynomolgus monkeys, both sexes, 4-week repeated oral dosing; read-out: No Observed Adverse Effect Level (NOAEL)
valueKind: NOAEL at 4 weeks (mg/kg/day)

• C[C@H](NCc1ccc(-c2ccc(C(F)(F)F)cc2)cc1)C(N)=O [Compound 18j] = 40

* * *

test: Pharmacokinetic study in cynomolgus monkeys (N118029)
Format: in vivo, cynomolgus monkey (Macaca fascicularis)
particulars: male, cynomolgus monkey, plasma, po, 30 mg/kg
valueKind: Cmax (ng/mL)

- C[C@H](NCc1ccc(-c2ccc(C(F)(F)F)cc2)cc1)C(N)=O [Compound 18j]: 4850

* * *

Reported melting point values are given for each entry in this list.
valueKind: melting point

- CCC(C)[C@H](NCc1ccc(-c2cccc(C(F)(F)F)c2)cc1)C(N)=O (stereo partly drawn) [Compound 23i]: 263 to 265 °C
- C[C@H](NCc1ccc(-c2ccc(OC(F)(F)F)cc2)cc1)C(N)=O [Compound 18l]: 256 to 259 °C
- CC(C)[C@H](NCc1ccc(-c2cccc(C(F)(F)F)c2)cc1)C(N)=O [Compound 21i]: 274 to 278 °C
- CCC(C)[C@H](NCc1ccc(-c2ccc(Cl)cc2)cc1)C(N)=O (stereo partly drawn) [Compound 23g]: 260 to 262 °C
- NC(=O)CNCc1ccc(-c2ccc(F)cc2)cc1 [Compound 17d]: 238 to 242 °C
- C[C@H](NCc1ccc(-c2ccc(Cl)cc2)cc1)C(N)=O [Compound 18g]: 220 to 223 °C
- C[C@H](NCc1ccc(-c2ccccc2)cc1)C(N)=O [Compound 18a]: 252 to 256 °C
- CC(C)C[C@H](NCc1ccc(-c2ccc(C(F)(F)F)cc2)cc1)C(N)=O [Compound 22j]: 267 to 270 °C
- CC(C)[C@H](NCc1ccc(-c2ccc(C(F)(F)F)cc2)cc1)C(N)=O [Compound 21j]: 266 to 267 °C

* * *

test: Pharmacokinetic study in cynomolgus monkeys (N118029)
Format: in vivo, cynomolgus monkey (Macaca fascicularis)
particulars: male, cynomolgus monkey, plasma, po, 30 mg/kg
valueKind: AUC (ng·h/mL)

- C[C@H](NCc1ccc(-c2ccc(C(F)(F)F)cc2)cc1)C(N)=O [Compound 18j]: 80800

* * *

targetUnderTest: human recombinant MAO-B (hMAO-B) (Homo sapiens, UniProt P27338)
Construct: purchased Sigma Aldrich
Sequence (P27338 whole entry): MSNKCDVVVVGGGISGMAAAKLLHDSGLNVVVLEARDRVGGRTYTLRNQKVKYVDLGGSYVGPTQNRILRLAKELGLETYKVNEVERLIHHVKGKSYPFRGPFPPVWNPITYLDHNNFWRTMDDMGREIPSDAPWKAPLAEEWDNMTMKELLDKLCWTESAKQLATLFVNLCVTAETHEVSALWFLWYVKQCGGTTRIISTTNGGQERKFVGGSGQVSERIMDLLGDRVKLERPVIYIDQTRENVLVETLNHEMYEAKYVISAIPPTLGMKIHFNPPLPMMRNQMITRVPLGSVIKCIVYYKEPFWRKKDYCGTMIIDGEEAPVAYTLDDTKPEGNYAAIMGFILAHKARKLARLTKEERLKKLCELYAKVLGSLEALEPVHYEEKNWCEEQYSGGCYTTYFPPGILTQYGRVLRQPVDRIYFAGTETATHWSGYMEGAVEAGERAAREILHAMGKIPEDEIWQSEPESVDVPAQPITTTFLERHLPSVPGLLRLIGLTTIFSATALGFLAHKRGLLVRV
test: In vitro MAO-B enzyme assay (H2O2 release, absorbance 570 nm)
Format: biochemical
particulars: hMAO-B, substrate benzylamine; read-out: Inhibition (IC50) MAO-B
pIC50: −log10 of the molar value.
Reported pIC50 values are given for each entry in this list.
valueKind: pIC50

- NC(=O)CNCc1ccc(-c2ccc(Cl)cc2)cc1 [Compound 17g]: 5.84
- NC(=O)CNCc1ccc(-c2ccc(C(F)(F)F)cc2)cc1 [Compound 17j]: 6.92
- NC(=O)CNCc1ccc(-c2ccc(OC(F)(F)F)cc2)cc1 [Compound 17l]: 6.86
- NC(=O)CNCc1ccc(-c2cccc(C(F)(F)F)c2)cc1 [Compound 17i]: 6.00
- NC(=O)CNCc1ccc(-c2cccc(Cl)c2)cc1 [Compound 17f]: 5.81
- CC[C@H](NCc1ccc(-c2ccc(OC(F)(F)F)cc2)cc1)C(N)=O [Compound 20l]: 7.00
- CC(C)[C@H](NCc1ccc(-c2ccc(C(F)(F)F)cc2)cc1)C(N)=O [Compound 21j]: 5.39
- CC[C@H](NCc1ccc(-c2ccc(C(F)(F)F)cc2)cc1)C(N)=O [Compound 20j]: 6.62
- NC(=O)CNCc1ccc(-c2cccc(OC(F)(F)F)c2)cc1 [Compound 17k]: 6.49

* * *

Reported melting point values are given for each entry in this list.
valueKind: melting point

• COc1ccc(-c2ccc(CNCC(N)=O)cc2)cc1 [Compound 17n] = 243 to 245 °C
• C[C@H](NCc1ccc(-c2cccc(F)c2)cc1)C(N)=O [Compound 18c] = 235 to 238 °C
• NC(=O)CNCc1ccc(-c2cccc(OC(F)(F)F)c2)cc1 [Compound 17k] = 152 to 156 °C
• C[C@H](NCc1ccc(-c2cccc(C(F)(F)F)c2)cc1)C(N)=O [Compound 18i] = 215 to 217 °C
• NC(=O)CNCc1ccc(-c2ccc(OC(F)(F)F)cc2)cc1 [Compound 17l] = 217 to 220 °C
• COc1cccc(-c2ccc(CN[C@@H](CC(C)C)C(N)=O)cc2)c1 [Compound 22m] = 240 to 242 °C
• NC(=O)CNCc1ccc(-c2cccc(C(F)(F)F)c2)cc1 [Compound 17i] = 168 to 169 °C
• CCC(C)[C@H](NCc1ccc(-c2cccc(Cl)c2)cc1)C(N)=O (stereo partly drawn) [Compound 23f] = 248 to 250 °C
• CS(=O)(=O)O.NC(=O)CNCc1ccc(-c2ccccc2)cc1 [Compound 17a] = 233 to 236 °C
